Items are presented alongside their recorded z-score.
assay: Components of the Cytosolic LPS Sensing Pathway: Gene Identification via Genome-wide siRNA Screen; settings: RAW264.7 macrophages, IL-1a HTRF, actives lie on both sides, screened at 100 nM (by protocol), cells primed 5 h with Pam3CSK4 first;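 also: robust z of the log signal after scaling to non-targeting control siRNA wells of the plate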
Hit rate of the full screen: of about 53,000 sequences, about 3,700 (7%) were called active. Only a selection was taken, and actives are over-represented in it overall.

SEQUENCE_STRING | z-score
GCUAAAGUGACCUUAAAACTT against Phactr4 | -0.382
CCCAGGUCCUACCUUCUUUTT against Ppcdc | -2.1
CCAUAAGCGAAAUGCCUUCTT against Areg | 0.201
CCAUGAGUAUCAAGUCAAUTT against Septin9 | 1.14
GGAUUUGGGUUUUCUAUAATT against Cfb | -0.0373
GGCAUGAGACAAGCUAGUCTT against Mrgpre | -0.463
GGACAACGAGUGUCUGGGUTT against Cx3cr1 | 4.8
GGACAACGGAUUUUAGGAGTT against Barhl2 | 0.44
GGAGUGAUGUCCAUACUGGTT against Leap2 | -2.57
GCCACGCAAUAAAGCAUCUTT against Sars | -0.284
GGGAACAGAAGUUGUGAGATT against Gulp1 | 1.5
GCUUACCAGAUUGUAUGUATT against Mrgpra1 | 0.533
CGCAUAGAGCCUGUCCUCATT against Spink1 | -1.57
GCUCUCACACCCUUAUGUATT against Nptn | -1.45
GGACACAACAAGUCUUAUGTT against Prg2 | -0.876
GGAGAAAGAGCAGAGUCUGTT against Cep250 | -2.04
GGAUGUUCCAUUUCUAAGCTT against Zfp30 | -3.76
GGAAAACUGCUUUGAGCUGTT against Thap7 | 2.72
GGCACGAUGGUUCAUCCUUTT against Plek2 | -2.01
CGAAGUGAAAAGUAUGACCTT against Lrrc72 | -0.083
GGUGGUGAUAAGCUUCCUCTT against Olfr1417 | -1.87
ACAAAGAAGCGAUUUCUAUTT against Wtip | 1.32

###

Below, each entry is listed alongside its reported z-score.
experiment: Components of the Cytosolic LPS Sensing Pathway: Gene Identification via Genome-wide siRNA Screen; conditions: RAW264.7 macrophages, IL-1a HTRF, actives lie on both sides, screened at 100 nM (by protocol), cells primed 5 h with Pam3CSK4 first;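 also: robust z of the log signal after scaling to non-targeting control siRNA wells of the plate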
Out of some 53,000 sequences screened, about 3,700 (7%) were called active. The entries come from a sample that favours actives as a whole.

SEQUENCE_STRING | z-score
GGCAAUAAUCUUAGAGGUUTT against 9530068E07Rik | 0.499
GGGAACUCGAACAAGAAUUTT against Six1 | 1.11
CCAAUUUACGACAAAUCGUTT against Entpd4 | -0.56
GGCUUUGACAAUCUUUAAGTT against Ergic1 | -0.687
CCUUCAGUGCUGUAGUGUATT against Rasl10b | 0.37
GCUGAGAGACUUGUGAAAUTT against Ndufb11 | 1.06

###

assay: Components of the Cytosolic LPS Sensing Pathway: Gene Identification via Genome-wide siRNA Screen; settings: RAW264.7 macrophages, IL-1a HTRF, actives lie on both sides, screened at 100 nM (by protocol), cells primed 5 h with Pam3CSK4 first;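 also: robust z of the log signal after scaling to non-targeting control siRNA wells of the plate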
In all, about 53,000 sequences went through this assay and about 3,700 (7%) were called active. Many of the other results were omitted from the sample, so actives are more common in it than they were.
Categorized via z-score: low: < -0.9; middle: ≥ -0.9 and < -0.2; high: ≥ -0.2

SEQUENCE_STRING | CLASS
GGAGCUCAAGAACAGGAUGTT against Clec3b | high
GGUAGACAGAGAAGAUAAATT against Slc35f5 | low
GGUGUUUGGGCGGUUUGAATT against Snx15 | low
GGAACGUAUACCUAUACCCTT against Huwe1 | middle
CCAGGUUCUCCGAAUCUCUTT against Cpa1 | middle
GCCAUACCUUCAACUGUCGTT against Ncoa2 | low
GGAGAGAAACUGCGUGUAATT against Sla | high
GGCGAAUGGAAGAUAAUGCTT against Stxbp3 | middle
CGAGCUGUUAGAAUUCAGATT against Jakmip1 | middle
GCAUUUCGCCUCUUUCAUATT against Elac1 | middle
GGUAAUAUUUCGUGCUUUATT against Lamb1 | high
GGUGCAGUUUAAGAGAGAATT against Tmcc3 | middle
GCACCAGUCGAAUCCUCAATT against Gpr137 | low
GCCAGCCUAAAAAAGAUACTT against Eef1g | high
GGGUUUUUUUUUUCCUUCCTT against Hsd17b1 | high
GGUUCAGAUCCACAGCCAGTT against Asic2 | low
GCUUUUAAAGCAUGGGCAGTT against Alb | high
CCCAGACGAGAACUGUAUCTT against Sqor | high
GGUCCUACAGGAGAAGAUCTT against Tekt2 | low
CCUUCAACCUUCGAGAUACTT against Kcnh2 | middle
GGCUGAACAGGCAUGAUCATT against Rpap1 | low

Value source: PubChem BioAssay AID1508600
